These data points were gathered from patent US12600725B2.

Form: system (Hsp90β (Homo sapiens, UniProt P08238)), quantity (IC50), values below.
Quantity Measured: IC50

[[record]]
compound = "C#CCCCn1c(Sc2cccc(Cl)c2Cl)nc2c(N)ncnc21 [PDP-119A]"
quantity_measured = "IC50"
result = "> 100 µM"

[[record]]
compound = "C#CCCCn1cnc(N)c2nc(Sc3cc(Cl)ccc3Cl)nc1-2 [PU-H43]"
quantity_measured = "IC50"
result = "> 100 µM"

[[record]]
compound = "C#CCCCn1cnc(N)c2nc(Sc3cc(C)cc(C)c3)nc1-2 [PU-H45]"
quantity_measured = "IC50"
result = "> 100 µM"

[[record]]
compound = "C#CCCCn1c(Sc2cc(C)ccc2C)nc2c(N)ncnc21 [PU-H27]"
quantity_measured = "IC50"
result = "> 300 µM"

[[record]]
compound = "C#CCCCn1c(Sc2ccccc2CO)nc2c(N)ncnc21 [PU-H34]"
quantity_measured = "IC50"
result = "> 100 µM"

[[record]]
compound = "C#CCCCn1c(Sc2ccccc2Cl)nc2c(N)ncnc21 [PU-H6]"
quantity_measured = "IC50"
result = "> 100 µM"

[[record]]
compound = "Nc1ncnc2c1nc(Sc1cc(Cl)cc(Cl)c1)n2CCC(F)(F)F [PDP-I-13-N9]"
quantity_measured = "IC50"
result = "> 100 µM"

[[record]]
compound = "C#CCCCn1c(Sc2ccc(Cl)cc2Cl)nc2c(N)ncnc21 [PU-H39]"
quantity_measured = "IC50"
result = "> 300 µM"

[[record]]
compound = "C#CCCCn1c(Sc2ccc(Br)cc2Cl)nc2c(N)ncnc21 [PDP-I-61-N9]"
quantity_measured = "IC50"
result = "> 50 µM"

[[record]]
compound = "C#CCCCCn1cnc(N)c2nc(Sc3cc(Cl)cc(Cl)c3)nc1-2 [PDP-112B]"
quantity_measured = "IC50"
result = "> 100 µM"

[[record]]
compound = "CCCCn1c(Cc2ccc(OC)cc2)nc2c(N)ncnc21 [PU1]"
quantity_measured = "IC50"
result = "92 µM"

[[record]]
compound = "C#CCCCn1c(Sc2ccccc2OC(F)(F)F)nc2c(N)ncnc21 [PU-H9]"
quantity_measured = "IC50"
result = "> 100 µM"

[[record]]
compound = "C#CCCCn1c(Sc2cc(Cl)cc(Cl)c2Cl)nc2c(N)ncnc21 [PDP-125A]"
quantity_measured = "IC50"
result = "> 100 µM"

[[record]]
compound = "C#CCCCn1c(Sc2cccc3ccccc23)nc2c(N)ncnc21 [PDP-I-16-N9]"
quantity_measured = "IC50"
result = "> 100 µM"

[[record]]
compound = "C#CCCCn1c(Sc2ccc(Cl)c(Cl)c2)nc2c(N)ncnc21 [PDP-I-25-N9]"
quantity_measured = "IC50"
result = "10.2 µM"

[[record]]
compound = "C#CCCCn1c(Sc2ccc(Br)cn2)nc2c(N)ncnc21 [PDP-I-60-N9]"
quantity_measured = "IC50"
result = "2.82 µM"

[[record]]
compound = "Nc1ncn(CCCCC(F)(F)F)c2nc(Sc3cc(Cl)cc(Cl)c3)nc1-2 [PDP-109B]"
quantity_measured = "IC50"
result = "> 100 µM"

[[record]]
compound = "C#CCCCn1c(Sc2cc(Cl)c(Cl)c(Cl)c2)nc2c(N)ncnc21 [PDP-121]"
quantity_measured = "IC50"
result = "> 100 µM"

[[record]]
compound = "C#CCCCn1c(Sc2cc(Cl)ccc2Cl)nc2c(N)ncnc21 [PU-H42]"
quantity_measured = "IC50"
result = "> 100 µM"

[[record]]
compound = "C#CCCCn1c(Sc2cc(Br)cc(Br)c2)nc2c(N)ncnc21 [PDP-I-59-N9]"
quantity_measured = "IC50"
result = "> 100 µM"


====

Molecular target: Grp94 (Canis lupus familiaris, UniProt P41148)
Sequence (P41148 with tags, fused parts or gaps DELINS287-327GGGG): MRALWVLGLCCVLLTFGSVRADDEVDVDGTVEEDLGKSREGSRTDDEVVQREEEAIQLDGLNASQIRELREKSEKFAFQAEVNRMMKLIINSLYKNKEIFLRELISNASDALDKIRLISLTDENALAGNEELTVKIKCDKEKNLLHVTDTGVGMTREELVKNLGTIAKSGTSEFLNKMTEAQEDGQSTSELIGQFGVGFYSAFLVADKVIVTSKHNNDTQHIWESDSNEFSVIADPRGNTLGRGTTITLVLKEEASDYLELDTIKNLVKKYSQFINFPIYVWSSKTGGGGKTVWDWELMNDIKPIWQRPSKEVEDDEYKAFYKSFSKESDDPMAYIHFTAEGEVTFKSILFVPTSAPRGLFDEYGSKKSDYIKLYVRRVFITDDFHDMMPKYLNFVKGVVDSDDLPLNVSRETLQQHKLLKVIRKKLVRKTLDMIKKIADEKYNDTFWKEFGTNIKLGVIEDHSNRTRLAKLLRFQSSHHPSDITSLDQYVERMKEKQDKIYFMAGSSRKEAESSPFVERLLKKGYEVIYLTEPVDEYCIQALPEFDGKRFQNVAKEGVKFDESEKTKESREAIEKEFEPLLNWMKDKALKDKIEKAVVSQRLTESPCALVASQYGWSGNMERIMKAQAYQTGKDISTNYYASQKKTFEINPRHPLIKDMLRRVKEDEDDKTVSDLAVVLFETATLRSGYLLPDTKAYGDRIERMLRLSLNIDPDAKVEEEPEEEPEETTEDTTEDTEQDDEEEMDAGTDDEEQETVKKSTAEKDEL
Conditions: read-out: Grp94; FP competition, 6 nM Cy3B-GM, 10 nM protein, 4° C. for 24 h
Reported log10(IC50) values are given for each entry in this list.
Quantity Measured: log10(IC50) (log10 of the value in nM)

[[record]]
compound = "Nc1ncnc2c1nc(Sc1cc(Cl)cc(Cl)c1)n2CCc1cccnc1 [HJP-V-140]"
quantity_measured = "log10(IC50)"
quantitative_readout = 3.90

[[record]]
compound = "C#CCCCn1cnc(N)c2nc(Sc3ccc(Cl)cc3Cl)nc1-2 [PU-H38]"
quantity_measured = "log10(IC50)"
quantitative_readout = 3.37

[[record]]
compound = "CC(C)(C)CNCCCn1c(Sc2cc(Cl)cc(Cl)c2)nc2c(N)nc(F)nc21 [HJP-VI-85]"
quantity_measured = "log10(IC50)"
quantitative_readout = 2.27

[[record]]
compound = "C#CCCCn1c(Sc2ccc(C(F)(F)F)cc2C(F)(F)F)nc2c(N)ncnc21 [PDP-122]"
quantity_measured = "log10(IC50)"
quantitative_readout = 2.70

[[record]]
compound = "C#CCN(CCO)CCCn1c(Sc2cc(Cl)cc(Cl)c2)nc2c(N)ncnc21 [HJP-V-132]"
quantity_measured = "log10(IC50)"
quantitative_readout = 2.91

[[record]]
compound = "C=C(C)c1cc(Cl)cc(Sc2nc3c(N)ncnc3n2CCCNC(C)C)c1 [HJP-VI-12]"
quantity_measured = "log10(IC50)"
quantitative_readout = 2.32


====

Items are presented alongside their recorded pIC50.
Target: Hsp90α (Homo sapiens)
Assay: biochemical
Settings: FP competition, 6 nM Cy3B-GM, 10 nM protein, 4° C. for 24 h
pIC50: −log10 of the molar value.
Quantity Measured: pIC50

[[record]]
compound = "Nc1ncnc2c1nc(Sc1ccc(Cl)cc1Cl)n2CCc1cccnc1 [HJP-V-116]"
result = "< 4.30"

[[record]]
compound = "CC(C)NCCCn1c(Sc2cc(Cl)cc(-c3ccn[nH]3)c2)nc2c(N)ncnc21 [HJP-VI-29]"
result = 4.59

[[record]]
compound = "CC(C)NCCCn1c(Sc2ccc(F)cc2Cl)nc2c(N)ncnc21 [HJP-VI-25]"
result = "< 4.30"

[[record]]
compound = "C=C(c1cc(Cl)cc(Sc2nc3c(N)ncnc3n2CCCNC(C)C)c1)C(F)(F)F [HJP-VI-70]"
result = 4.86

[[record]]
compound = "Nc1ncnc2c1nc(Sc1cc(Cl)cc(Cl)c1)n2CCc1ccccc1 [PDP-127]"
result = "< 4.00"

[[record]]
compound = "Nc1ncnc2c1nc(Sc1cc(Cl)cc(Cl)c1)n2CCCn1ccnc1 [SO-III-103A]"
result = "< 5.00"

[[record]]
compound = "C#CCCCn1c(Sc2cc(C)ccc2C)nc2c(N)ncnc21 [PU-H27]"
result = "< 3.52"

[[record]]
compound = "CCCCn1c(Cc2ccc(OC)cc2)nc2c(N)ncnc21 [PU1]"
result = 3.96

[[record]]
compound = "C#CCCCn1c(Sc2ccc(C#N)c(Cl)c2)nc2c(N)ncnc21 [HJP-III-33]"
result = 5.12

[[record]]
compound = "CC(C)(O)CNCCn1c(Sc2ccc(Cl)cc2Cl)nc2c(N)ncnc21 [HJP-V-85]"
result = 5.04

[[record]]
compound = "C#CCCCn1c(Sc2ccc(C#N)c(Br)c2)nc2c(N)ncnc21 [HJP-III-32]"
result = 4.84

[[record]]
compound = "CC(C)=C(C)c1cc(Cl)cc(Sc2nc3c(N)ncnc3n2CCCNC(C)C)c1 [HJP-VI-14]"
result = "< 4.30"

[[record]]
compound = "Nc1ncnc2c1nc(Sc1cc(Cl)cc(Cl)c1)n2CCc1cccnc1 [HJP-V-140]"
result = "< 4.30"

[[record]]
compound = "Nc1ncn(CCCCCC(F)(F)F)c2nc(Sc3cc(Cl)cc(Cl)c3)nc1-2 [PDP-101A]"
result = "< 4.00"

[[record]]
compound = "C#CCCn1cnc(N)c2nc(Sc3cc(Cl)cc(Cl)c3)nc1-2 [PDP-I-14-N3]"
result = "< 4.30"

[[record]]
compound = "CC(Br)CCCn1c(Sc2cc(Cl)cc(Cl)c2)nc2c(N)ncnc21 (stereo not shown) [PDP-99A]"
result = "< 4.00"

[[record]]
compound = "C#CCCCn1cnc(N)c2nc(Sc3cc(Cl)ccc3Cl)nc1-2 [PU-H43]"
result = "< 4.00"

[[record]]
compound = "C#CCCCn1c(Sc2ccc(Cl)c3ccccc23)nc2c(N)ncnc21 [PDP-I-77-N9]"
result = "< 4.30"

[[record]]
compound = "C=C(C)c1cc(Cl)cc(Sc2nc3c(N)ncnc3n2CCCNC(C)C)c1 [HJP-VI-12]"
result = 4.70


====

Assay: in vivo
Parameters: species or system mouse
Conditions: female, nu/nu athymic, mouse, plasma, intraperitoneal; 75 mg/kg ip, 2 h; read-out: PU-WS13 level in the plasma
Quantity Measured: concentration at 2 h (µM)

[[record]]
compound = "CC(C)NCCCn1c(Sc2cc(Cl)cc(Cl)c2)nc2c(N)ncnc21 [PU-WS13]"
quantity_measured = "concentration at 2 h"
quantitative_readout = 100

